Tested on: DU-145 prostate
Test: NCI-60 one-dose screen, 48 h (100 = growth as untreated, 0 = no growth, -100 = all killed)
Conditions: 10 µM unless noted
The panel holds about 83,000 compounds, 20% with a hit somewhere; the sample as a whole holds those more often.
Reported growth values follow for various compounds
Endpoint Label: growth (%)

1. CCCCCCCCCCCCCCCc1ccc(C(=O)C[n+]2ccccc2)cc1 :: -97.6
2. CC[n+]1ccc(Nc2ccc(NC(=O)c3ccc(Nc4cc[n+](CC)c5ccc([N+](=O)[O-])cc45)cc3)cc2)cc1 :: 91.9
3. Oc1ccccc1N=Cc1ccccc1 :: 83.5
4. c1ccc(-c2cc3cc4ccccc4cn3c2)cc1 :: 101
5. CCN(CC)CC(O)c1cc(-c2ccc(Cl)cc2)nc2cc(Cl)ccc12 (stereo not given) :: 17.9
6. O=[N+]([O-])c1cc(-c2ccccc2)c(O)c([N+](=O)[O-])c1 :: 107
7. O=C1Nc2ccc(Br)cc2C1=O :: 99.5
8. CC(C)(C)c1ccc(O)c(Br)c1 :: 105
9. CSc1nc(C)c(C(=O)CCN2CCN(c3ccccn3)CC2)s1 :: 102
10. CCC[CH2][Sn]1([CH2]CCC)[O]C2C(CO)OC(n3ccc(N)nc3=O)C2[O]1 (stereo not given) :: 2.15
